- protocol-notes: NCI Yeast Anticancer Drug Screen. Data for the mec2-1 strain (AID 157)
- condition-set: S. cerevisiae mec2-1 strain, at 50.0 µM, stronger effect = higher value
This is part of a sample that, as a whole, favours compounds with a hit. Of some 79,000 tested, about 15% had one in any assay.
property-name: growth inhibition (%)
Provide the reading as a plain figure in %.

compound	unit-name	number
CC1=C(C#[N+][O-])C(C)(C)CCC1	%	5.1
Cc1cc(=O)oc2cc(OC(=O)Nc3ccc(F)c([N+](=O)[O-])c3)ccc12	%	45.2
O=C1CN(c2ccccc2)C(=O)CN1/N=C/c1ccc[nH]1	%	-7.55
COc1ccc2ccccc2c1C(Cc1ccccc1)NCCO (configuration not stated)	%	-20.4

*Q* Which growth inhibition is listed for NC(=O)CCC1CCCCN1 (configuration not stated) ?
*A* 18.8

*Q* // query growth inhibition value for entry `O=C(NCCCc1ccccc1)Nc1ccccc1`
*A* -0.65

*Q* Value lookup for growth inhibition; key = `N#Cc1ccc(OC(=O)Nc2cccc(Cl)c2Cl)cc1`
*A* -25.4

Where do the numbers come from? From PubChem BioAssay (NCI).
